The reader will find reported log10 IC50 values listed item by item below.
# assay-target: D(2) dopamine receptor (Mus musculus, UniProt P61168)
# Sequence (P61168 whole entry): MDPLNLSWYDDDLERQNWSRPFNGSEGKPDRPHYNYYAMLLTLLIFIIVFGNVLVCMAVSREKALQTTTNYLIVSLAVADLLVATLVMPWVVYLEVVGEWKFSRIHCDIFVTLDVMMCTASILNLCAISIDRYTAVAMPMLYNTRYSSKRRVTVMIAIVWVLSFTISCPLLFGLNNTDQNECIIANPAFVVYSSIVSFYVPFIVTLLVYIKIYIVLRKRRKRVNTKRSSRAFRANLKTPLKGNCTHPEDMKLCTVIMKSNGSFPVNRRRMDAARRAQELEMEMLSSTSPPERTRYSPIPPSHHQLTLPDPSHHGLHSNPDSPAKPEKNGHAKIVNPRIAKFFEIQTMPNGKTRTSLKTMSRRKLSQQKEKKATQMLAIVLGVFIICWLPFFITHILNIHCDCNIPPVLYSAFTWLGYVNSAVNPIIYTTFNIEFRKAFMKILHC
# method-description: In vitro binding affinity towards dopamine receptor D2
In plain terms, each number is the log10 of measured IC50 in nM.

Here is how some compounds turned out for log10 IC50.
compound | log10 IC50
Fc1ccc(OCC2CCN(CCC3CC3)CC2)cc1.O=C(O)/C=C/C(=O)O | 2.63
Cl.Clc1ccc(OCC2CCN(CC3CC3)CC2)cc1Cl | 3.22
O=C(CC1CCCN(CC2CC2)C1)c1ccc(F)cc1 (stereo not drawn) | 2.27
O.OC(CC1CCN(Cc2ccccc2)CC1)c1ccc2ccccc2c1 (stereo not drawn) | 3.52
O.O=C(CC1CCN(Cc2ccccc2)CC1)c1ccc(C(F)(F)F)cc1 | 3.67
O=C(CC1CCN(Cc2ccc(F)cc2)CC1)c1ccc(F)cc1 | 2.78

QUERY: Fill: log10 IC50 (D(2) dopamine receptor (Mus musculus, UniProt P61168)) for this compound O=C(CC1CCN(CCc2ccc(C(F)(F)F)cc2)CC1)c1ccc(F)cc1
RESULT: 1.00

QUERY: Fill: log10 IC50 (D(2) dopamine receptor (Mus musculus, UniProt P61168)) for this compound Cl.Clc1ccc(OCC2CCN(Cc3ccccc3)CC2)cc1
RESULT: 3.62

QUERY: Fill: log10 IC50 (D(2) dopamine receptor (Mus musculus, UniProt P61168)) for this compound Cl.O.OC(Cc1ccc(F)cc1)C1CCN(Cc2ccccc2)CC1 (stereo not drawn)
RESULT: 2.90

QUERY: Fill: log10 IC50 (D(2) dopamine receptor (Mus musculus, UniProt P61168)) for this compound c1cc2cc(OCC3CCN(CC4CC4)CC3)ccc2[nH]1
RESULT: 3.37

QUERY: Fill: log10 IC50 (D(2) dopamine receptor (Mus musculus, UniProt P61168)) for this compound COc1ccc(-c2ccc(OCC3CCN(CC4CC4)CC3)cc2)cc1
RESULT: 3.86

QUERY: Fill: log10 IC50 (D(2) dopamine receptor (Mus musculus, UniProt P61168)) for this compound O=C(CC1CCN(CCc2ccc(F)cc2)CC1)c1ccc(F)cc1
RESULT: 1.76

* * *

# assay-target: Sigma non-opioid intracellular receptor 1 (Mus musculus, UniProt O55242)
# Sequence (O55242 whole entry): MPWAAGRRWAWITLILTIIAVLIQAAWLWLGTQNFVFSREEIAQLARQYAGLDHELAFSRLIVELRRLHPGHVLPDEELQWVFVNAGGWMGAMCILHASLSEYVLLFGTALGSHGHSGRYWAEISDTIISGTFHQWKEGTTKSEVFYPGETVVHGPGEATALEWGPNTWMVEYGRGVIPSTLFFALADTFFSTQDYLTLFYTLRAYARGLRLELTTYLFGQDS
# method-description: In vitro binding affinity for the mouse sigma opioid receptor
measured-property: Ki (nM)
State the answer as a number, implicitly in nM.

Here is how some compounds turned out for Ki.
structure-as-smiles | Ki, nM
Cl.c1ccc(CCCCCOCC2CCN(Cc3ccccc3)CC2)cc1 | 26
Cl.Fc1ccc(COCC2CCN(Cc3ccc(Cl)cc3)CC2)cc1 | 2
c1cc2cc(OCC3CCN(CC4CC4)CC3)ccc2[nH]1 | 34
COc1ccc(-c2ccc(OCC3CCN(CC4CC4)CC3)cc2)cc1 | 218
Cl.c1ccc(COCC2CCN(Cc3ccccc3)CC2)cc1 | 4

Now consider a different compound.
QUERY: Return value of Ki for input Cl.c1ccc(CCCCOCC2CCN(Cc3ccccc3)CC2)cc1 , no commentary.
RESULT: 2

* * *

# assay-target: D(2) dopamine receptor (Mus musculus)
# method-description: The compound was tested in vitro for its binding affinity towards Dopamine receptor D2
measured-property: IC50 (µM)
State the answer as a number, implicitly in µM.

QUERY: Return value of IC50 for input Fc1ccc(SCC2CCN(CCC3CC3)CC2)cc1 , no commentary.
RESULT: 1.7
